biological target: UniProtKB P49841; experiment: GSK3β p-TYR inhibition assay, western blotting of Jurkat cells; conditions: compound incubated o/n, read-out: GSK3b pTYR 216: IC50
Sequence (P49841 whole entry): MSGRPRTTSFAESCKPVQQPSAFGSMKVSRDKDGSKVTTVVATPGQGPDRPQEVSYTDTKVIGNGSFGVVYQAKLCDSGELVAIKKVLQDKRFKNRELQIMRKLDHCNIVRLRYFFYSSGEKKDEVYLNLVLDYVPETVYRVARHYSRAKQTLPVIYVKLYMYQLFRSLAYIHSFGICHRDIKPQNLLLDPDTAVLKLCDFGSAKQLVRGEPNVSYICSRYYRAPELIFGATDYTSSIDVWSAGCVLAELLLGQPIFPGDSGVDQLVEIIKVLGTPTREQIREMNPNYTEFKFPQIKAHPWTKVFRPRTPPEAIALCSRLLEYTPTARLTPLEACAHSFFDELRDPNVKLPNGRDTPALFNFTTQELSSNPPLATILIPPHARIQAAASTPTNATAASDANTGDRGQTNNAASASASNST
pIC50: −log10 of the molar value.
REPORTED_PROPERTY: pIC50

In [3]: df
Out[3]:
                           molecular_string  reported_property  value_observed
0  Cc1cc(Nc2n[nH]c3ncc(F)cc23)nc(-c2ccccc2Cl)c1              pIC50            7.52
1  Fc1cnc2[nH]nc(Nc3cc(C(F)(F)F)cc(-c4ccccc4Cl)n3)c2c1              pIC50            7.30
2  Cc1cc(Nc2n[nH]c3ncc(F)cc23)nc(-c2ccccc2Cl)c1C              pIC50            6.70
3  Cc1cc(-c2ccccc2Cl)nc(Nc2n[nH]c3ncc(F)cc23)c1C              pIC50            6.52
4  Cc1cc(Nc2n[nH]c3ncc(F)cc23)nc(-c2ccccc2)c1C              pIC50            7.70
